# key: entry, value: Ki
molecular target: T1, hMC4-R (human, UniProt P32245 1-332); experiment: competition with [125I]-NDP-α-MSH, CHO-K1 membranes
T1 construct: whole, on cells; Assayed as membranes of CHO-K1 cells expressing the receptor; also called hMC-R receptor subtype 4; melanocortin-4 (MC4-R)
T1 sequence (P32245 whole entry): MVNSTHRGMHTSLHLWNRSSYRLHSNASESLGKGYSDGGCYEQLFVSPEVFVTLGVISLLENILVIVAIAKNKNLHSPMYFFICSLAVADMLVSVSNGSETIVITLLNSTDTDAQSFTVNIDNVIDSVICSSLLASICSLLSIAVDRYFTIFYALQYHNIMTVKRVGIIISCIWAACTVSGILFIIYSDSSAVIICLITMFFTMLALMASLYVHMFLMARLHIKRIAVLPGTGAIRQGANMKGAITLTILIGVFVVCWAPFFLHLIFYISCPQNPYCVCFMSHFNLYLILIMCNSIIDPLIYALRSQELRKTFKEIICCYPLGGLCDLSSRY
Bridge positions count the residues as written; N and C are the ends. Square brackets hold non-standard residues; d marks the D form. Ends that are not written are not given here. 2Nal = N[C@@H](Cc1ccc2ccccc2c1)C(=O)O; dCha = N[C@H](CC1CCCCC1)C(=O)O; dTle = CC(C)(C)[C@@H](N)C(=O)O; Pen = CC(C)(S)[C@H](N)C(=O)O; Nle = CCCC[C@H](N)C(=O)O; GABA = NCCCC(=O)O
Value expressed in nM; do not type the unit.

Look over these answered cases.
BINDER	UNIT OF MEASURE	Ki
Ac-[Nle]C[dCha]H[dF]RWC-NH2 (disulfide 2-8; SMILES CCCC[C@H](NC(C)=O)C(=O)N[C@H]1CSSC[C@@H](C(N)=O)NC(=O)[C@H](Cc2c[nH]c3ccccc23)NC(=O)[C@H](CCCNC(=N)N)NC(=O)[C@@H](Cc2ccccc2)NC(=O)[C@H](Cc2c[nH]cn2)NC(=O)[C@@H](CC2CCCCC2)NC1=O) [Ac-Nle-c(Cys-D-Cha-His-D-Phe-Arg-Trp-Cys)-NH2]	nM	1.41
Ac-[Nle]C[dTle]H[dF]RWC-NH2 (disulfide 2-8) [Ac-Nle-c(Cys-D-Tle-His-D-Phe-Arg-Trp-Cys)-NH2]	nM	11.2

Input line: Please look up its Ki: Ac-C[dA]H[dF]R[2Nal]AC-NH2 (disulfide 1-8; SMILES CC(=O)N[C@H]1CSSC[C@@H](C(N)=O)NC(=O)[C@H](C)NC(=O)[C@H](Cc2ccc3ccccc3c2)NC(=O)[C@H](CCCNC(=N)N)NC(=O)[C@@H](Cc2ccccc2)NC(=O)[C@H](Cc2c[nH]cn2)NC(=O)[C@@H](C)NC1=O) [Ac-c(Cys-D-Ala-His-D-Phe-Arg-2-Nal-Ala-Cys)-NH2]
Output line: 40.7

Input line: So what's the measured Ki for this one? FCH[dF]RW[GABA]C-NH2 (disulfide 2-8; N-terminus assumed; SMILES N=C(N)NCCC[C@@H]1NC(=O)[C@@H](Cc2ccccc2)NC(=O)[C@H](Cc2c[nH]cn2)NC(=O)[C@@H](NC(=O)[C@@H](N)Cc2ccccc2)CSSC[C@@H](C(N)=O)NC(=O)CCCNC(=O)[C@H](Cc2c[nH]c3ccccc23)NC1=O) [Phe-c(Cys-His-D-Phe-Arg-Trp-Gaba-Cys)-NH2]
Output line: 4.93

Input line: Requested read-out: Ki. Entry: Ac-[Nle]DH[dF]RW[GABA]K-NH2 (lactam 2-8) [Ac-Nle-c(Asp-His-D-Phe-Arg-Trp-Gaba-Lys)-NH2]
Output line: 1.04

Input line: Returns the measured Ki for the input binder. Input: Ac-VCH[dF]RW[GABA]C-NH2 (disulfide 2-8; SMILES CC(=O)N[C@H](C(=O)N[C@H]1CSSC[C@@H](C(N)=O)NC(=O)CCCNC(=O)[C@H](Cc2c[nH]c3ccccc23)NC(=O)[C@H](CCCNC(=N)N)NC(=O)[C@@H](Cc2ccccc2)NC(=O)[C@H](Cc2c[nH]cn2)NC1=O)C(C)C) [Ac-Val-c(Cys-His-D-Phe-Arg-Trp-Gaba-Cys)-NH2]
Output line: 1.98

Input line: I have this binder here, Ac-[dR]CH[dF]RW[GABA][Pen]-NH2 (disulfide 2-8; SMILES CC(=O)N[C@H](CCCNC(=N)N)C(=O)N[C@H]1CSSC(C)(C)[C@@H](C(N)=O)NC(=O)CCCNC(=O)[C@H](Cc2c[nH]c3ccccc23)NC(=O)[C@H](CCCNC(=N)N)NC(=O)[C@@H](Cc2ccccc2)NC(=O)[C@H](Cc2c[nH]cn2)NC1=O) [Ac-D-Arg-c(Cys-His-D-Phe-Arg-Trp-Gaba-Pen)-NH2] , and I need its recorded Ki.
Output line: 11
